Target: T1, biotinylated recombinant human trimeric ARG2 enzyme (Avi-huARG2-His10) (human, UniProt P78540 23-354, biotinylated)
T1 construct: also called avi-Arg2-His10; bio-ARG2
T1 chain: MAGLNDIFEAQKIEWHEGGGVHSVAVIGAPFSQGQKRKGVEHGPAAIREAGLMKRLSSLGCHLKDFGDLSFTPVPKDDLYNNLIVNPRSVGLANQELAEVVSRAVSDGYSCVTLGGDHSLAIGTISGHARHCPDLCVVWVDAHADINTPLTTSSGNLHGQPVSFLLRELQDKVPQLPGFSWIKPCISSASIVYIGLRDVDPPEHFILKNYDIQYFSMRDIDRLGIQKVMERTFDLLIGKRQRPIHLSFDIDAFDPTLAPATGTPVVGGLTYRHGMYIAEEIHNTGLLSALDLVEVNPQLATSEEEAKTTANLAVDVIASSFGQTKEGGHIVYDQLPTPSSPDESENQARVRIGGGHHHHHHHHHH
Test: BLI (OctetRED), biotinylated ARG2 on streptavidin, Fab as analyte
Property Label: Kd (nM)
Form entry: value (nM) — number only.

Query string: Record request: Kd value, item C0021133 Fab (Fab, V domains shown, Human Fab) VH: EVQLLESGGGLVQPGGSLRLSCAASGFTFRYDHHVWVRQAPGKGLEWVSAISGSGGSTYYADSVKGRFTISRDNSKNTLYLQMNSLRAEDTAVYYCARLRADLGLYMDLWGRGTLVTVSS VL: QSVLTQPPSVSAAPGQKVTVSCSGSSSNIGNHYVSWYQQLPGTAPKLLIYDTTVLSSGIPDRFSGSKSGTSATLGITGLQTGDEADYYCGTWDELTSNLVFGGGTKLTVL
Result string: 2.05
